Test system: Target C
Test: Splicing RT-qPCR panel, Target C canonical junction (CJ) mRNA
Assay type: cell-based, human
Details: Homo sapiens, RT-qPCR panel, canonical junction mRNA; compound concentration having 50% response in CJ decrease; read-out: Target C IC50 (decrease in CJ mRNA levels)
pIC50: −log10 of the molar value.
For each of the compounds below, state its pIC50.

I would be grateful if you could provide pIC50 for each of the following entries.
1. CC(C)(C)NC1CCN(c2ccc(-c3ccc(-n4cccn4)c4cn[nH]c34)nn2)C1 (stereo not drawn) [Compound 310]
2. CNCC1CCN(c2ncc(-c3ccc(-c4cn[nH]c4)c4ncsc34)nn2)C1 (stereo not drawn) [Compound 411]
3. CN(c1ccc(-c2ccc(-n3cccn3)c3nn[nH]c23)nn1)[C@@H]1C[C@H]2CC[C@@H](C1)N2 [Compound 119]
4. c1nc2c(-c3cn[nH]c3)ccc(-c3ccc(N[C@H]4C[C@H]5COC[C@@H](C4)N5)nn3)c2s1 [Compound 353]
5. Cc1cc(-c2ccc(-c3cnc(N(C)[C@@H]4C[C@H]5CCC[C@@H](C4)N5)nn3)c3scnc23)sn1 [Compound 580]
6. CN(c1ccc(-c2ccc(-c3ccc(=O)n(C)c3)c3cn[nH]c23)nn1)[C@@H]1C[C@H]2CC[C@@H](C1)N2 [Compound 365]
7. Cn1cc(-c2ccc(-c3ccc(OC4CC(C)(C)NC(C)(C)C4)nn3)c3[nH]ncc23)cn1 [Compound 232]

1. < 5.00
2. < 5.00
3. 6.00 to 7.00
4. 5.00 to 6.00
5. > 7.00
6. 5.00 to 6.00
7. 5.00 to 6.00

Give pIC50 for all compounds that follow.
1. c1nc2c(-c3cn[nH]c3)ccc(-c3ccc(N4CCNC(C5CC5)C4)nn3)c2s1 (stereo not drawn) [Compound 417]
2. c1cnn(-c2ccc(-c3ccc(N4CCNC(C5CC5)C4)nn3)c3cn[nH]c23)c1 (stereo not drawn) [Compound 560]
3. CC1(C)CC(Nc2ccc(-c3ccc(-c4cn[nH]c4)c4cn[nH]c34)nn2)CC(C)(C)N1 [Compound 275]

< 5.00
5.00 to 6.00
5.00 to 6.00

// input: 3 compounds below; output: pIC50 for each
1. CC(C)(C)[C@H]1CN(c2ncc(-c3ccc(-n4cccn4)c4[nH]ncc34)nn2)CCN1 [Compound 581]
2. C[C@@H]1CN(c2ncc(-c3ccc(-n4cccn4)c4[nH]ncc34)nn2)C[C@H](C)N1 [Compound 571]
3. Cn1ncc(-c2ccc(-c3ccc(N[C@@H]4C[C@H]5CC[C@@H](C4)N5)nn3)c3[nH]ncc23)n1 [Compound 322]

1. 6.00 to 7.00
2. 5.00 to 6.00
3. > 7.00

Please go through the list and note pIC50 for each compound.
1. c1n[nH]cc1-c1ccc(-c2ccc(N3CCC4(CC3)CNC4)nn2)c2[nH]ncc12 [Compound 238]
2. CN(c1ccc(-c2ccc(-c3cn[nH]c3)c3ncsc23)nn1)C1CCNCC1 [Compound 222]

1: < 5.00; 2: 5.00 to 6.00
